Reference source: ChEMBL document CHEMBL4732254

assay: Hepatotoxicity assessed as induction of mitochondrial (unknown origin) toxicity by measuring mitochondrial inhibitory activity; details: mitochondria (unknown origin)
endpoint.name: IC50

Form: molecule = `CC(C)(C)c1cc(C(=O)N2CCCC2)cc(C#N)c1O` ; IC50 = > 100 µM

Value of IC50 reported for the molecule `O=C(c1cc(Br)c(O)c(Br)c1)N1CC=CC1` is > 100 µM

`CCc1cc(C(=O)N2CC=CC2)cc(C#N)c1O` yielded IC50 of > 100 µM
